Molecular target: glutaminase (GAC) (Homo sapiens, UniProt O94925)
Sequence (O94925 55-598 isoform O94925-3 limits assumed): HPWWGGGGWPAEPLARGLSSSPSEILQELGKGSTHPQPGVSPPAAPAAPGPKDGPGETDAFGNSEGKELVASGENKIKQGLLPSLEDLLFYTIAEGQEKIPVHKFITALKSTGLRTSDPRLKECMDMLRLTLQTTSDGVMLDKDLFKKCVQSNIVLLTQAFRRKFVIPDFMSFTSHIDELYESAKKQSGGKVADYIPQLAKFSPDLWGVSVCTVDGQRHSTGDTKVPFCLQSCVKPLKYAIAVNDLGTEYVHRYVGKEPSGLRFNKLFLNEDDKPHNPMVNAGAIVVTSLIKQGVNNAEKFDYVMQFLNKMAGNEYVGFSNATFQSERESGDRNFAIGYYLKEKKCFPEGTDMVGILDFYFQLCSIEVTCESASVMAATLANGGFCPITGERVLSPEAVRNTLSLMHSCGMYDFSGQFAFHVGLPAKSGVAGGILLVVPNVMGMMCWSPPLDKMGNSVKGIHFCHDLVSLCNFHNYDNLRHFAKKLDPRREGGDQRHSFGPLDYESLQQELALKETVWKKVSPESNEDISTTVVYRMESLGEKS
pIC50: −log10 of the molar value.
Measurement type: pIC50

CN(C)c1ccc(CC(=O)Nc2nnc([C@H]3CCC[C@H](c4nnc(NC(=O)Cc5ccc(N(C)C)cc5)s4)C3)s2)cc1: > 7.00

Problem: Look up pIC50: "O=C(Cc1ccccn1)Nc1nnc([C@H]2CCC[C@H](c3nnc(NC(=O)[C@@H](O)c4ccccc4)s3)C2)s1"
Result: > 7.00

Problem: Look up pIC50: "O=C(Cc1cccc(N2CC(F)(F)C2)n1)Nc1nnc([C@H]2CCC[C@H](c3nnc(NC(=O)[C@@H](O)c4ccccc4)s3)C2)s1"
Result: > 7.00

Problem: Look up pIC50: "O=C(Cc1ccc(Cl)cc1)Nc1nnc([C@H]2CCC[C@H](c3nnc(NC(=O)Cc4ccc(Cl)cc4)s3)C2)s1"
Result: 6.30 to 7.00

Problem: Look up pIC50: "O=C(Cc1ccncc1)Nc1nnc([C@H]2CCC[C@H](c3nnc(NC(=O)Cc4ccncc4)s3)C2)s1"
Result: > 7.00

Problem: Look up pIC50: "O=C(Cc1cc2ccccc2[nH]1)Nc1nnc([C@H]2CCC[C@H](c3nnc(NC(=O)Cc4cc5ccccc5[nH]4)s3)C2)s1"
Result: 6.30 to 7.00

Problem: Look up pIC50: "O=C(CC1CC1)Nc1nnc([C@H]2CCC[C@H](c3nnc(NC(=O)CC4CC4)s3)C2)s1"
Result: 6.30 to 7.00

Problem: Look up pIC50: "O=C(Cc1ccc(N2CC(F)C2)cn1)Nc1nnc([C@H]2CCC[C@H](c3nnc(NC(=O)Cc4ccc(N5CC(F)C5)cn4)s3)C2)s1"
Result: > 7.00

Problem: Look up pIC50: "O=C(Cc1cccc(OC(F)(F)F)c1)Nc1nnc([C@H]2CC[C@H](c3nnc(NC(=O)Cc4cccc(N5CC(F)(F)C5)n4)s3)C2)s1"
Result: > 7.00

Problem: Look up pIC50: "O=C(Cc1cccc(N2CC(F)(F)C2)n1)Nc1nnc([C@H]2CCC[C@H](c3nnc(NC(=O)[C@H](O)c4ccccc4)s3)C2)s1"
Result: > 7.00

Problem: Look up pIC50: "N#Cc1cccc(CC(=O)Nc2nnc([C@H]3CCC[C@H](c4nnc(NC(=O)Cc5cccc(CN)c5)s4)C3)s2)c1"
Result: > 7.00

Problem: Look up pIC50: "O=C(Nc1nnc([C@H]2CCC[C@H](c3nnc(NC(=O)C4CCCC4)s3)C2)s1)C1CCCC1"
Result: 5.70 to 6.00

Problem: Look up pIC50: O=C(Cc1cccc(OC(F)(F)F)c1)Nc1nnc([C@H]2CCC[C@H](c3nnc(NC(=O)C(CO)c4ccccc4)s3)C2)s1 (stereo partly drawn)
Result: > 7.00

Problem: Look up pIC50: "COc1cc(CC(=O)Nc2nnc([C@H]3CCC[C@H](c4nnc(NC(=O)Cc5ccc(F)c(OC)c5)s4)C3)s2)ccc1F"
Result: 6.30 to 7.00

Problem: Look up pIC50: "O=C(Cc1ccc([N+](=O)[O-])cc1)Nc1nnc([C@H]2CCC[C@H](c3nnc(NC(=O)Cc4ccc([N+](=O)[O-])cc4)s3)C2)s1"
Result: 5.70 to 6.00

Problem: Look up pIC50: "O=C(CCC(F)(F)F)Nc1nnc([C@H]2CCC[C@H](c3nnc(NC(=O)CCC(F)(F)F)s3)C2)s1"
Result: 5.70 to 6.00

Problem: Look up pIC50: "O=C(CCc1ccccn1)Nc1nnc([C@H]2CCC[C@H](c3nnc(NC(=O)CCc4ccccn4)s3)C2)s1"
Result: 6.30 to 7.00

Problem: Look up pIC50: "N#Cc1ccccc1CC(=O)Nc1nnc([C@H]2CCC[C@H](c3nnc(NC(=O)Cc4ccccc4C#N)s3)C2)s1"
Result: > 7.00
